Values compiled from paper PMC8561633.

- MEASUREMENT_TARGET: amyloid beta peptide (strongest wild‐type SERF2 binding peptide from amyloid beta), carboxyfluorescein-labeled (human)
- PROTOCOL_DESCRIPTION: MST
Ends that are not written are not given here.
Below, each of the binders is paired with its reported Kd value.
Output spec: scalar in µM, unitless text.

wild‐type SERF2 (natural protein) MTRGNQRELARQKNMKKQSDSVKGKRRDDGLSAAARKQRDSEIMQQKQKKANEKKEEPK :: 9.6

Shifting focus to the binder that follows.
response.value for SERF2 KR mutant (natural protein) MTRGNQRELARQKNMRRQSDSVRGKRRDDGLSAAARKQRDSEIMQQKQKKANEKKEEPK (field: Kd) = 6.6
